Where do the numbers come from? From patent US12281122B1.

Tested on: T47D (PI3Kα-H1047R) cell line
ASSAY METHOD TEXT: HTRF phospho-AKT(S473) cell assay in T47D cells
Type: cell-based, human
STATED CONDITIONS: Homo sapiens; HTRF phospho-AKT(S473), T47D (PI3Kα-H1047R) cells, 2 hours compound incubation
pIC50: −log10 of the molar value.
MEASUREMENT LABEL: pIC50

compound=Cc1cc([C@@H](C)Nc2ccc(Cl)nc2C(=O)NS(C)(=O)=O)c2nc(N3CCC(n4ncc(F)c4C)CC3)n(C)c(=O)c2c1 measurement_label=pIC50 observed_value="> 6.60"
compound=Cc1cnc(O[C@@H]2CCN(c3nc4c([C@@H](C)Nc5ccc(Cl)nc5C(=O)NS(C)(=O)=O)cc(C)cc4c(=O)n3C)C2)nc1 measurement_label=pIC50 observed_value="> 6.60"
compound=Cc1cc([C@@H](C)Nc2ccc(Cl)nc2C(=O)NS(C)(=O)=O)c2nc(N3CCC(c4cc(C5CC5)[nH]n4)CC3)n(C)c(=O)c2c1 measurement_label=pIC50 observed_value="6.00 to 6.30"
compound="Cc1cc([C@@H](C)Nc2ccc(Cl)nc2C(=O)NS(C)(=O)=O)c2nc(N3C[C@@H]4C[C@]4(c4cnc(C)cn4)C3)n(C)c(=O)c2c1 (relative stereo)" measurement_label=pIC50 observed_value="6.30 to 6.60"
compound=Cc1cc([C@@H](C)Nc2ccc(Cl)nc2C(=O)NS(C)(=O)=O)c2nc(-c3ccc4nc(C)oc4c3)n(C)c(=O)c2c1 measurement_label=pIC50 observed_value="> 6.60"
compound="Cc1cc([C@@H](C)Nc2ccc(Cl)nc2C(=O)NS(C)(=O)=O)c2nc(N3CC[C@H](c4cnc(C)nc4)C3)n(C)c(=O)c2c1 (relative stereo)" measurement_label=pIC50 observed_value="6.00 to 6.30"

Q: # query: pIC50 of entry Cc1cc([C@@H](C)Nc2ccc(Cl)nc2C(=O)NS(C)(=O)=O)c2nc(N3CC4C[C@H]3CN4c3ccc(N(C)C)cc3)n(C)c(=O)c2c1 (stereo in doubt)
Ans: 5.30 to 6.00

Q: # query: pIC50 of entry "Cc1cc([C@@H](C)Nc2ccc(Cl)nc2C(=O)NS(C)(=O)=O)c2nc(-c3ccc(Nc4cnn(C)c4)c(F)c3)n(C)c(=O)c2c1"
Ans: > 6.60

====

ASSAY METHOD TEXT: Mouse PK, IV and PO
STATED CONDITIONS: in vivo, IV dose 3 mg/kg, read-out: PK-Mouse: IV Cl
Each entry below carries its reported clearance.
// units = mL/min/kg; emit number, no label

compound="Cc1cc([C@@H](C)Nc2ccc(Cl)nc2C(=O)O)c2nc(N3Cc4ccc(F)cc4C3)n(C)c(=O)c2c1 [Compound 1 acid derivative, reference compound]" uom=mL/min/kg observed_value=24.3

Consider now this further compound.
Q: # query: clearance of entry "Cc1cc([C@@H](C)Nc2ccc(Cl)nc2C(=O)NS(C)(=O)=O)c2nc(N3Cc4ccc(F)cc4C3)n(C)c(=O)c2c1"
Ans: 0.74

====

Each entry below carries its reported bioavailability.
ASSAY METHOD TEXT: Mouse PK, IV and PO
STATED CONDITIONS: in vivo, PO dose 30 mg/kg, 20% Captisol (aq), fed, read-out: PK-Mouse: PO F (%)
The number alone won't do; follow it with the unit.

molecule=Cc1cc([C@@H](C)Nc2ccc(Cl)nc2C(=O)NS(C)(=O)=O)c2nc(N3Cc4ccc(F)cc4C3)n(C)c(=O)c2c1 measurement_label=bioavailability observed_value=81%

Q: # query: bioavailability of entry Cc1cc([C@@H](C)Nc2ccc(Cl)nc2C(=O)O)c2nc(N3Cc4ccc(F)cc4C3)n(C)c(=O)c2c1 [Compound 1 acid derivative, reference compound]
Ans: 43%

====

Each entry below carries its reported pIC50.
Test system: SKBR3 (PI3Kα-Wild Type) cell line
ASSAY METHOD TEXT: HTRF phospho-AKT(S473) cell assay in SKBR3 cells
Assay type: cell-based, human
STATED CONDITIONS: Homo sapiens, SK-BR-3; HTRF phospho-AKT(S473), SKBR3 (PI3Kα-Wild Type) cells, 2 hours compound incubation, PDGF-BB stimulated
pIC50: −log10 of the molar value.

Examples from the recorded data:
compound="Cc1cc([C@@H](C)Nc2ccc(Cl)nc2C(=O)NS(C)(=O)=O)c2nc(-c3ccc([C@@H]4CN(C)CCO4)cc3)n(C)c(=O)c2c1 (relative stereo)" observed_value="≤ 5.30"
compound=Cc1cc([C@@H](C)Nc2ccc(Cl)nc2C(=O)NS(C)(=O)=O)c2nc(N3Cc4cn(C5CC(F)(F)C5)nc4C3)n(C)c(=O)c2c1 observed_value="5.30 to 6.00"
compound=Cc1cc([C@@H](C)Nc2ccc(Cl)nc2C(=O)NS(C)(=O)=O)c2nc(N3CCC(c4nn(C)nc4C)CC3)n(C)c(=O)c2c1 observed_value="5.30 to 6.00"
compound=Cc1cnc([C@H]2[C@@H]3CN(c4nc5c([C@@H](C)Nc6ccc(Cl)nc6C(=O)NS(C)(=O)=O)cc(C)cc5c(=O)n4C)C[C@@H]32)nc1 observed_value="5.30 to 6.00"
compound=C[C@@H](Nc1ccc(Cl)nc1C(=O)NS(C)(=O)=O)c1cc(F)cc2c(=O)n(C)c(-c3ccc4nn(C)cc4c3)nc12 observed_value="5.30 to 6.00"

Consider now this further compound.
Q: Request: pIC50, test system SKBR3 (PI3Kα-Wild Type) cell line, entry "Cc1cc([C@@H](C)Nc2ccc(Cl)nc2C(=O)NS(C)(=O)=O)c2nc(N3CC[C@H](N(C)c4ncc(F)cn4)C3)n(C)c(=O)c2c1"
Ans: ≤ 5.30

====

System: T47D (PI3Kα-H1047R) cell line
ASSAY METHOD TEXT: HTRF phospho-AKT(S473) cell assay in T47D cells
Format: cell-based, human
STATED CONDITIONS: Homo sapiens; HTRF phospho-AKT(S473), T47D (PI3Kα-H1047R) cells, 2 hours compound incubation
pIC50: −log10 of the molar value.
Each entry below carries its reported pIC50.

Examples from the recorded data:
molecule=Cc1cc([C@@H](C)Nc2ccc(Cl)nc2C(=O)NS(C)(=O)=O)c2nc(N3C[C@@H]4[C@H](C3)[C@H]4c3n[nH]cc3F)n(C)c(=O)c2c1 measurement_label=pIC50 observed_value="> 6.60"
molecule=Cc1cc([C@@H](C)Nc2ccc(Cl)nc2C(=O)NS(C)(=O)=O)c2nc(N3C[C@H]4C[C@@H]3CN4c3cnc(C)nc3)n(C)c(=O)c2c1 measurement_label=pIC50 observed_value="6.00 to 6.30"
molecule=Cc1cc([C@@H](C)Nc2ccc(Cl)nc2C(=O)NS(C)(=O)=O)c2nc(-c3ccc4nn(C5COC5)cc4c3)n(C)c(=O)c2c1 measurement_label=pIC50 observed_value="> 6.60"
molecule=Cc1cc([C@@H](C)Nc2ccc(Cl)nc2C(=O)NS(C)(=O)=O)c2nc(N3Cc4cn(C5CC(F)(F)C5)nc4C3)n(C)c(=O)c2c1 measurement_label=pIC50 observed_value="> 6.60"

Consider now this further compound.
Q: # query: pIC50 of entry "Cc1cc([C@@H](C)Nc2ccc(Cl)nc2C(=O)NS(C)(=O)=O)c2nc(N3CCC(c4nc(C)nn4C)CC3)n(C)c(=O)c2c1"
Ans: 6.30 to 6.60

====

Each entry below carries its reported IC50.
Test system: SKBR3 (PI3Kα-Wild Type) cell line
ASSAY METHOD TEXT: HTRF phospho-AKT(S473) cell assay in SKBR3 cells
Type: cell-based, human
STATED CONDITIONS: Homo sapiens, SK-BR-3; HTRF phospho-AKT(S473), SKBR3 (PI3Kα-Wild Type) cells, 2 hours compound incubation, PDGF-BB stimulated

molecule="CCn1c(N2CCC(n3cc(C)cn3)CC2)nc2c([C@@H](C)Nc3ccc(Cl)nc3C(=O)NS(C)(=O)=O)cc(C)cc2c1=O [Compound 526]" experimental_target="SKBR3 (PI3Kα-Wild Type) cell line" observed_value="1 to 5 µM"
molecule="Cc1cc([C@@H](C)Nc2ccc(Cl)nc2C(=O)NS(C)(=O)=O)c2nc(N3C[C@@H]4[C@H](C3)[C@H]4c3nc(C)nn3C(F)F)n(C)c(=O)c2c1 [Compound 643]" experimental_target="SKBR3 (PI3Kα-Wild Type) cell line" observed_value="≥ 5 µM"
molecule="Cc1cc([C@@H](C)Nc2ccc(Cl)nc2C(=O)NS(C)(=O)=O)c2nc(N3C[C@@H]4[C@H](C3)[C@H]4c3cc4cccnn4n3)n(C)c(=O)c2c1 [Compound 620]" experimental_target="SKBR3 (PI3Kα-Wild Type) cell line" observed_value="1 to 5 µM"
molecule="COc1ccc(C2CCN(c3nc4c([C@@H](C)Nc5ccc(Cl)nc5C(=O)NS(C)(=O)=O)cc(C)cc4c(=O)n3C)CC2)cn1 [Compound 700]" experimental_target="SKBR3 (PI3Kα-Wild Type) cell line" observed_value="≥ 5 µM"
molecule="COc1ncc(F)c(N2CCN(c3nc4c([C@@H](C)Nc5ccc(Cl)nc5C(=O)NS(C)(=O)=O)cc(C)cc4c(=O)n3C)CC2)n1 [Compound 720]" experimental_target="SKBR3 (PI3Kα-Wild Type) cell line" observed_value="1 to 5 µM"

Q: # query: IC50 of entry Cc1cc([C@@H](C)Nc2ccc(Cl)nc2C(=O)NS(C)(=O)=O)c2nc(N3CCC(c4nn(C)cc4C#N)CC3)n(C)c(=O)c2c1 [Compound 697]
Ans: 1 to 5 µM

Q: # query: IC50 of entry Cc1cc([C@@H](C)Nc2ccc(Cl)nc2C(=O)NS(C)(=O)=O)c2nc(N3CCC(c4cccc5c4cnn5C)CC3)n(C)c(=O)c2c1 [Compound 678]
Ans: ≥ 5 µM

Q: # query: IC50 of entry Cc1cc([C@@H](C)Nc2ccc(Cl)nc2C(=O)NS(C)(=O)=O)c2nc(N3C[C@@H]4C[C@H]3CN4c3cnc(C)nc3)n(C)c(=O)c2c1 [Compound 576]
Ans: ≥ 5 µM

Q: # query: IC50 of entry Cc1cc([C@@H](C)Nc2ccc(Cl)nc2C(=O)NS(C)(=O)=O)c2nc(N3CCC(c4nn(C5CC5)cc4F)CC3)n(C)c(=O)c2c1 [Compound 505]
Ans: ≥ 5 µM

Q: # query: IC50 of entry Cc1cc([C@@H](C)Nc2ccc(Cl)nc2C(=O)NS(C)(=O)=O)c2nc(N3C[C@@H]4C[C@H]3CN4c3cnc(C)c(F)c3)n(C)c(=O)c2c1 [Compound 608]
Ans: ≥ 5 µM

Q: # query: IC50 of entry Cc1cc([C@@H](C)Nc2ccc(Cl)nc2C(=O)NS(C)(=O)=O)c2nc(-c3ccc4c(c3)ncn4C)n(C)c(=O)c2c1 [Compound 833]
Ans: 1 to 5 µM

Q: # query: IC50 of entry Cc1cc([C@@H](C)Nc2ccc(Cl)nc2C(=O)NS(C)(=O)=O)c2nc(N3Cc4cccc(-c5cncn5C)c4C3)n(C)c(=O)c2c1 [Compound 674]
Ans: ≥ 5 µM
